- System: ROCKII (h)
- assay overview: Kinase inhibition assay (33P-ATP, P30 filter, scintillation counting): ROCK-II
- Assay type: biochemical
- details: 30µM Testsubstanz (100 µM ATP); 40 min
reported endpoint: Hemmung von Kinasen in % ROCKII (h)

compound: Fc1ccc(CSc2ncnc3[nH]cnc23)cc1
result: 18%

compound: c1ccc(Nc2ncnc3[nH]cnc23)cc1
result: 48%

compound: c1ccc(Sc2ncnc3[nH]cnc23)cc1
result: 33%

compound: Fc1ccc(Nc2ncnc3[nH]cnc23)cc1
result: 52%

compound: Nc1ncnc2ncn(Cc3ccc(F)cc3)c12
result: 6%

compound: Cn1cnc2c(Sc3ccc(F)cc3)ncnc21
result: 6%

compound: Fc1ccc(Sc2ncnc3c2ncn3Cc2ccccc2)cc1
result: 5%

compound: Cn1c(-c2ccc([S+](C)[O-])cc2)nc2c(Sc3ccccc3)ncnc21 (stereo not drawn)
result: 1%

compound: Fc1ccc(Cn2cnc3c(Sc4ccc(F)cc4)ncnc32)cc1
result: 0%

compound: Cn1cnc2c(Nc3ccccc3)ncnc21
result: 0%

compound: Cn1c(-c2ccccc2)nc2c(-c3ccc(F)cc3)ncnc21
result: 0%

compound: Fc1ccc(Sc2ncnc3[nH]cnc23)cc1
result: 37%

compound: Cn1c(-c2ccc([S+](C)[O-])cc2)nc2c(Sc3ccc(F)cc3)ncnc21 (stereo not drawn)
result: 0%

compound: c1ccc(Cn2cnc3c(Sc4ccccc4)ncnc32)cc1
result: 1%

compound: Fc1ccc(Cn2cnc3c(Sc4ccccc4)ncnc32)cc1
result: 2%

compound: Cn1c(C#CCCO)nc2c(Sc3ccccc3)ncnc21
result: 0%

compound: Cn1c(-c2ccccc2)nc2c(Sc3ccccc3)ncnc21
result: 1%

compound: Cn1c(-c2ccc(S(C)(=O)=O)cc2)nc2c(Sc3ccccc3)ncnc21
result: 5%

compound: C(=Cc1ncnc2[nH]cnc12)c1ccccc1
result: 22%

compound: Nc1ncnc2c1ncn2Cc1ccc(F)cc1 [Verbd. 42a, 9-(4-Fluoro-benzyl)-9H-purin-6-ylamin]
result: 5%

compound: Fc1ccc(Sc2ncnc3[nH]ccc23)cc1
result: 42%

* * *

inhibition at 30 µM for assorted compounds
- assay target: MEK1 (h) (Homo sapiens)
- Sequence (Q02750 whole entry): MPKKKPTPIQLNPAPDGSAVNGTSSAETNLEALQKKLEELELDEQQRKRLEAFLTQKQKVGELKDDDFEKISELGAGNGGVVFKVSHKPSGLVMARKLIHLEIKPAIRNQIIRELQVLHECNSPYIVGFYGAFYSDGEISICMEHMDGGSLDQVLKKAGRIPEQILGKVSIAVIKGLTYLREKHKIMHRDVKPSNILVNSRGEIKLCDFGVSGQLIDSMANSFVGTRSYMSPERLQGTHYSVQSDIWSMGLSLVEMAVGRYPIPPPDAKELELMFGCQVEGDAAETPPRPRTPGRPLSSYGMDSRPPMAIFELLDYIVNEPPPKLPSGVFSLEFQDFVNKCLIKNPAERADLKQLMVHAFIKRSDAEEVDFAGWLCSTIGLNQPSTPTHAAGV
- assay overview: Kinase inhibition assay: MEK1 (coupled to MAPK2 assay)
- Format: biochemical
- details: 30µM Testsubstanz (100 µM ATP); read-out: Hemmung von Kinasen in % MEK1 (h)

chemical smiles: C(=Cc1ncnc2[nH]cnc12)c1ccccc1
inhibition at 30 µM / %: 7
--
chemical smiles: c1ccc(CSc2ncnc3[nH]cnc23)cc1
inhibition at 30 µM / %: 7
--
chemical smiles: Cn1c(-c2ccccc2)nc2c(Sc3ccc(F)cc3)ncnc21
inhibition at 30 µM / %: 7

* * *

- assay target: JNK3 (r) (Rattus norvegicus)
- Sequence (P49187 whole entry): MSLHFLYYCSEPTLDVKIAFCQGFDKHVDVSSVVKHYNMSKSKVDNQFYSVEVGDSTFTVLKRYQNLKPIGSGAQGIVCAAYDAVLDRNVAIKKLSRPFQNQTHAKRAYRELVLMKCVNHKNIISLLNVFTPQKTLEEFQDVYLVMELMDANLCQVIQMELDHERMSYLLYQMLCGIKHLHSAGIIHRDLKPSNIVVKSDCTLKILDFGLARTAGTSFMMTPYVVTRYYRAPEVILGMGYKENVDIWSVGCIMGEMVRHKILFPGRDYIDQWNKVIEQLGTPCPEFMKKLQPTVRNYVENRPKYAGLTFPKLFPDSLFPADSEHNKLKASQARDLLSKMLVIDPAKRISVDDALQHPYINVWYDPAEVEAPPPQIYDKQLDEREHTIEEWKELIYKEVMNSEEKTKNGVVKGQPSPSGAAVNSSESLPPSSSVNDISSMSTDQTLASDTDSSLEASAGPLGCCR
- assay overview: Kinase inhibition assay: JNK3
- Format: biochemical
- details: 30µM Testsubstanz (100 µM ATP); read-out: Hemmung von Kinasen in % JNK3 (r)
inhibition at 30 µM for assorted compounds

compound: Cn1c(-c2ccc([S+](C)[O-])cc2)nc2c(Sc3ccccc3)ncnc21 (centres unmarked) [Verbd. 59]
units symbol: %
inhibition at 30 µM: 6
//
compound: Fc1ccc(Sc2ncnc3c2ncn3Cc2ccccc2)cc1 [Verbd. 75]
units symbol: %
inhibition at 30 µM: 0
//
compound: c1ccc(Sc2ncnc3[nH]ccc23)cc1 [Verbd. 52]
units symbol: %
inhibition at 30 µM: 0
//
compound: Cn1c(C#CCCO)nc2c(Sc3ccccc3)ncnc21 [Verbd. 79]
units symbol: %
inhibition at 30 µM: 0
//
compound: Fc1ccc(CSc2ncnc3[nH]cnc23)cc1 [Verbd. 10, 6-(4-Fluoro-benzylsulfanyl)-9H-purin]
units symbol: %
inhibition at 30 µM: 12

* * *

inhibition at 30 µM for assorted compounds
- assay target: GSK3β (h) (Homo sapiens, UniProt P49841)
- Sequence (P49841 whole entry): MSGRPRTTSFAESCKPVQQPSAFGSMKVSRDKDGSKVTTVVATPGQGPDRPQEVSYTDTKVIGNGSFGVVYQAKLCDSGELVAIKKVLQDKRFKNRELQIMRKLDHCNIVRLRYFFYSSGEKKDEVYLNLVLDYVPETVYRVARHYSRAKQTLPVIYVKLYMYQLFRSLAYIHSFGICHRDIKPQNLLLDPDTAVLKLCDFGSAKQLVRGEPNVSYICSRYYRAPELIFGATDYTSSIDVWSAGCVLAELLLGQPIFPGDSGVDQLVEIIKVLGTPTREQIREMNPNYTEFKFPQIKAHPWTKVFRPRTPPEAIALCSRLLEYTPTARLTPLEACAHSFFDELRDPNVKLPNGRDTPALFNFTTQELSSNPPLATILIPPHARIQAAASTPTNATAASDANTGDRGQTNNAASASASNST
- assay overview: Kinase inhibition assay (33P-ATP, P30 filter, scintillation counting): GSK3β
- Format: biochemical
- details: 30µM Testsubstanz (100 µM ATP); read-out: Hemmung von Kinasen in % GSK3β (h)

compound: COc1ncnc2ncn(Cc3ccc(F)cc3)c12 [Verbd. 44, 7-(4-Fluoro-benzyl)-6-methoxy-7H-purin]
inhibition at 30 µM: 5%
//
compound: Fc1ccc(Sc2ncnc3[nH]cnc23)cc1 [Verbd. 16, 6-(4-Fluoro-phenylsulfanyl)-9H-purin]
inhibition at 30 µM: 0%
//
compound: Cn1c(-c2ccc([S+](C)[O-])cc2)nc2c(Sc3ccccc3)ncnc21 (stereo not shown) [Verbd. 59]
inhibition at 30 µM: 4%
//
compound: c1ccc(Cn2cnc3c(Sc4ccccc4)ncnc32)cc1 [Verbd. 74, 9-Benzyl-6-phenylsulfanyl-9H-purin]
inhibition at 30 µM: 1%
//
compound: Cn1c(-c2ccc([S+](C)[O-])cc2)nc2c(Sc3ccc(F)cc3)ncnc21 (stereo not shown) [Verbd. 60]
inhibition at 30 µM: 4%
//
compound: C(=Cc1ncnc2[nH]cnc12)c1ccccc1 [Verbd. 72, 6-Styryl-9H-purin]
inhibition at 30 µM: 20%
//
compound: Fc1ccc(Sc2ncnc3[nH]ccc23)cc1 [Verbd. 53]
inhibition at 30 µM: 4%
//
compound: c1ccc(CSc2ncnc3[nH]cnc23)cc1 [Verbd. 9, 6-Benzylsulfanyl-9H-purin]
inhibition at 30 µM: 35%
//
compound: c1ccc(Sc2ncnc3[nH]cnc23)cc1 [Verbd. 15, 6-Phenylsulfanyl-9H-purin]
inhibition at 30 µM: 1%
//
compound: Cn1c(-c2ccccc2)nc2c(Sc3ccccc3)ncnc21 [Verbd. 23]
inhibition at 30 µM: 0%
